Test system: Alopecurus myosuroides (ALOMY)
Assay: Pre-emergence biological efficacy, glasshouse pot test
Assay type: in vivo
Conditions: 312 h, pre-emergence, rate 1,000 g/ha, evaluated after 13 days (100=total damage to plant; 0=no damage), read-out: Percentage damage caused to weed species, ALOMY
Measurement Name: pest or weed control at 1000 g/ha (%)
Reply with just the number (in %).

Before answering, review these 4 worked examples.
Quick one: give measured pest or weed control at 1000 g/ha for C=Cc1c(NCc2ccco2)nc(-c2ccc(Cl)c(OC)c2F)nc1C(=O)OC [Compound 139-125]
70

Quick one: give measured pest or weed control at 1000 g/ha for COC(=O)c1nc(-c2cccc(OC)c2F)nc(NCc2ccco2)c1Cl [Compound 249-48]
0

Quick one: give measured pest or weed control at 1000 g/ha for COC(=O)c1nc(C2CC2)nc(N(C)Cc2ccc(N)cc2)c1Cl [Compound 5-86]
40

Quick one: give measured pest or weed control at 1000 g/ha for O=C(NCc1cccs1)c1nc(C2CC2)nc(NCc2cccs2)c1Cl [Compound 265-4]
0

New cases:
Quick one: give measured pest or weed control at 1000 g/ha for COC(=O)c1nc(-c2ccc(C)cc2F)nc(NCc2ccco2)c1Cl [Compound 257-48]
20

Quick one: give measured pest or weed control at 1000 g/ha for COC(=O)c1nc(-c2ccc(C)cc2Cl)nc(NCc2ccco2)c1Cl [Compound 238-48]
20

Quick one: give measured pest or weed control at 1000 g/ha for COC(=O)c1nc(-c2ccc(OC)cc2C)nc(NCc2ccco2)c1Cl [Compound 251-48]
0

Quick one: give measured pest or weed control at 1000 g/ha for COC(=O)c1nc(Cl)nc(NC2CC2)c1Cl [Compound 207-30]
0

Quick one: give measured pest or weed control at 1000 g/ha for COC(=O)c1nc(C2CC2)nc(N(C)Cc2cccc(Cl)c2)c1Cl [Compound 5-62]
0

###

System: Setaria faberi (SETFA)
Assay: Pre-emergence biological efficacy, glasshouse pot test
Assay type: in vivo
Details: 312 h, pre-emergence, rate 1,000 g/ha, evaluated after 13 days (100=total damage to plant; 0=no damage), read-out: Percentage damage caused to weed species, SETFA
Measurement Name: pest or weed control at 1000 g/ha (%)
Reply with just the number (in %).

Quick one: give measured pest or weed control at 1000 g/ha for COC(=O)c1nc(C2CC2)nc(N(C)Cc2ccco2)c1Cl [Compound 5-125]
80

Quick one: give measured pest or weed control at 1000 g/ha for COC(=O)c1nc(-c2ccc(Cl)s2)nc(NC2CC2)c1Cl [Compound 262-30]
0

Quick one: give measured pest or weed control at 1000 g/ha for COC(=O)c1nc(-c2ccc(Cl)c(OC)c2F)nc(NCc2ccc(C)o2)c1Cl [Compound 112-135]
90

Quick one: give measured pest or weed control at 1000 g/ha for COC(=O)c1nc(C2CC2)nc(N(C)CC2OCCO2)c1Cl [Compound 5-54]
0

Quick one: give measured pest or weed control at 1000 g/ha for CCN(Cc1cccs1)c1nc(C2CC2)nc(C(=O)OC)c1Cl [Compound 6-140]
0

###

Listing of entries alongside the reported pest or weed control at 1000 g/ha.
System: Amaranthus retoflexus (AMARE)
Test: Pre-emergence biological efficacy, glasshouse pot test
Type: in vivo
Conditions: Amaranthus retroflexus, 312 h; pre-emergence, 1,000 g/ha, evaluated after 13 days (100=total damage; 0=no damage); read-out: Percentage damage AMARE
Reply with just the number (in %).

Before answering, review these 3 worked examples.
Quick one: give measured pest or weed control at 1000 g/ha for `COC(=O)c1nc(C2CC2)nc(NCc2ccc(Br)o2)c1Cl`
100

Quick one: give measured pest or weed control at 1000 g/ha for `COC(=O)c1nc(C2CC2)nc(NC2CCCCC2)c1Cl`
0

Quick one: give measured pest or weed control at 1000 g/ha for COC(=O)c1nc(C2CC2)nc(NC(C)CC2CCCC2)c1Cl (centres unmarked)
10

New cases:
Quick one: give measured pest or weed control at 1000 g/ha for `COC(=O)c1nc(C2CC2)nc(NCc2cc(F)ccc2F)c1Cl`
50

Quick one: give measured pest or weed control at 1000 g/ha for C=CC(Nc1nc(C2CC2)nc(C(=O)OC)c1Cl)c1ccccc1 (centres unmarked)
90

###

System: Alopecurus myosuroides (ALOMY)
Assay: Post-emergence biological efficacy, glasshouse pot test
Assay type: in vivo
Details: 312 h, post-emergence, 1,000 g/ha, evaluated after 13 days (100=total damage; 0=no damage), read-out: Percentage damage caused to weed species, ALOMY
Measurement Name: pest or weed control at 1000 g/ha (%)
Reply with just the number (in %).

Before answering, review these 5 worked examples.
Quick one: give measured pest or weed control at 1000 g/ha for COC(=O)c1nc(C2CC2)nc(N[C@H](C)[C@@H](O)c2ccccc2)c1Cl [4-270 (erythro)]
30

Quick one: give measured pest or weed control at 1000 g/ha for COC(=O)c1nc(C2CC2)nc(NC2(/C=C/c3ccc(Cl)cc3Cl)CC2)c1Cl [Compound 4-28]
10

Quick one: give measured pest or weed control at 1000 g/ha for COC(=O)c1nc(C2CC2)nc(NCC2CCC(C#N)CC2)c1Cl (stereo not shown) [Compound 4-51]
10

Quick one: give measured pest or weed control at 1000 g/ha for COC(=O)c1nc(C2CC2)nc(NCC2CCCCC2)c1Cl [Compound 4-49]
10

Quick one: give measured pest or weed control at 1000 g/ha for COC(=O)c1nc(C2CC2)nc(NCc2cccc(C)c2)c1Cl [Compound 4-72]
10

New cases:
Quick one: give measured pest or weed control at 1000 g/ha for COC(=O)c1nc(C2CC2)nc(Nc2ccc(Cl)c(Cl)c2)c1Cl [Compound 4-42]
10

Quick one: give measured pest or weed control at 1000 g/ha for COC(=O)c1nc(C2CC2)nc(NC(Cc2ccccc2)C(=O)OC)c1Cl (stereo not shown) [Compound 4-283]
20

Quick one: give measured pest or weed control at 1000 g/ha for Cc1ccc(CNc2nc(C3CC3)nc(C(=O)O)c2Cl)cc1 [Compound 1-73]
10

Quick one: give measured pest or weed control at 1000 g/ha for COC(=O)c1nc(C2CC2)nc(NC(C(=O)OC)c2ccccc2)c1Cl (stereo not shown) [Compound 4-210]
60

Quick one: give measured pest or weed control at 1000 g/ha for COC(=O)c1nc(C2CC2)nc(NCCC(=O)OCc2ccccc2)c1Cl [Compound 4-266]
60

Quick one: give measured pest or weed control at 1000 g/ha for COC(=O)c1nc(C2CC2)nc(NCc2cccc(I)c2)c1Cl [Compound 4-70]
20

Quick one: give measured pest or weed control at 1000 g/ha for COC(=O)c1nc(C2CC2)nc(NC(C)(C)c2ccccc2)c1Cl [Compound 4-189]
20

Quick one: give measured pest or weed control at 1000 g/ha for COC(=O)c1nc(C2CC2)nc(NCc2ccc(C(C)C)cc2)c1Cl [Compound 4-74]
20

###

System: Amaranthus retoflexus (AMARE)
Assay: Pre-emergence biological efficacy, glasshouse pot test
Type: in vivo
Conditions: Amaranthus retroflexus, 312 h; pre-emergence, 1,000 g/ha, evaluated after 13 days (100=total damage; 0=no damage); read-out: Percentage damage AMARE
Listing of entries alongside the reported pest or weed control at 1000 g/ha.
Reply with just the number (in %).

Quick one: give measured pest or weed control at 1000 g/ha for COC(=O)c1nc(C2CC2)nc(NC2(/C=C\c3ccccc3)CC2)c1Cl [4-19 (Z)]
90

Quick one: give measured pest or weed control at 1000 g/ha for COC(=O)c1nc(C2CC2)nc(NC(Cc2ccc(F)cc2)C(=O)OC)c1Cl (stereo not drawn)
100

Quick one: give measured pest or weed control at 1000 g/ha for `COC(=O)c1nc(C2CC2)nc(NCc2ccc(C(C)C)cc2)c1Cl`
80

Quick one: give measured pest or weed control at 1000 g/ha for `COC(=O)c1nc(C2CC2)nc(NCc2c(F)cccc2F)c1Cl`
60

Quick one: give measured pest or weed control at 1000 g/ha for COC(=O)c1nc(C2CC2)nc(NC(C)c2ccc(C)cc2C)c1Cl (stereo not drawn)
30

In the following, a different compound is considered.
Quick one: give measured pest or weed control at 1000 g/ha for COC(=O)c1nc(C2CC2)nc(NCC2CCC(C#N)CC2)c1Cl (stereo not drawn)
30

###

Tested on: Alopecurus myosuroides (ALOMY)
Test: Post-emergence biological efficacy, glasshouse pot test
Format: in vivo
Details: 312 h, Rate 1,000 g/ha, post-emergence spray, evaluated after 13 days (100=total damage to plant; 0=no damage to plant), read-out: Percentage damage caused to weed species, post-emergence, ALOMY
# label = Criterion met if pest or weed control at 1000 g/ha >= 20% else Criterion not met

Exam item: decide whether the reported pest or weed control at 1000 g/ha for `COC(=O)c1nc(C2CC2)nc(N(C)Cc2cc(OC)cc(OC)c2)c1Cl` is at least 20%.
Criterion not met
